Where do the numbers come from? From patent US20180339057A1.

- assay.target: T1, human MIC-1 receptor (hGFRAL, GDNF family receptor alpha like), full length (human, UniProt Q6UXV0 19-394)
- T1 sequence (looked up): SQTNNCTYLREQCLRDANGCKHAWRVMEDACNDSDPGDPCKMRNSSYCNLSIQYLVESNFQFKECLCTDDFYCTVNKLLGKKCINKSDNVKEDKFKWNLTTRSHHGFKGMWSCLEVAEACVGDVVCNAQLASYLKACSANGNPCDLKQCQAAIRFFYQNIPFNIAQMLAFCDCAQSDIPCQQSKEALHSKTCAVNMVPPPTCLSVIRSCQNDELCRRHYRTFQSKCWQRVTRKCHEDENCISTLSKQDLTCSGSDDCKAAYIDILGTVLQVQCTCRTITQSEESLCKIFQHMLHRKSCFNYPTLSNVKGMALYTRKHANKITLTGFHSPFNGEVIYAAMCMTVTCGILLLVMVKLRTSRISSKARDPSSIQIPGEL
- assay.remarks: cell-based or functional assay
Values of Luciferase NNDK EC50 (pM) greater than or equal to 80 pM map to T; values below map to F.

Past entries and their recorded results:
>>> qualitative_label("Compound 19 (ligand, Cys-29 (residue 4 of SEQ ID NO: 288): S{Beta}-[2-[[(1S)-1-carboxy-5-[[2-[2-[2-[[2-[2-[2-[[(4S)-4-carboxy-4-[10-(4-carboxyphenoxy)decanoylamino]butanoyl]amino]ethoxy]ethoxy]acetyl]amino]ethoxy]ethoxy]acetyl]amino]pentyl]amino]-2-oxoethyl]Cys (protractor of Example 10.8), homodimer, two protractors per dimer) SEPCTSGSETPGTSESATPESGPGTSTEPSEGARGDHCPLGPGRCCRLHTVRASLEDLGWADWVLSPREVQVTMCIGACPSQFRAANMHAQIKTSLHRLKPDTVPAPCCVPASYNPMVLIQKTDTGVSLQTYDDLLAKDCHCI")
"F"
>>> qualitative_label("Compound 21 (ligand, Cys-29 (residue 4 of SEQ ID NO: 288): S{Beta}-[2-[2-[[2-[2-[2-[[2-[2-[2-[[(4S)-4-carboxy-4-[16-(1H-tetrazol-5-yl)hexadecanoylamino]butanoyl]amino]ethoxy]ethoxy]acetyl]amino]ethoxy]ethoxy]acetyl]amino]ethylamino]-2-oxoethyl]Cys (protractor of Example 10.10), homodimer, two protractors per dimer) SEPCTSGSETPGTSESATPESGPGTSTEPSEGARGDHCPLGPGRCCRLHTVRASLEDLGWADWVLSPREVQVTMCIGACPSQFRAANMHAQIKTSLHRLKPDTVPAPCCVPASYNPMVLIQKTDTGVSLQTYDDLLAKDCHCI")
"F"
>>> qualitative_label("Compound 04 (ligand, Cys-27 (residue 6 of SEQ ID NO: 291): S{Beta}-[2-[2-[[2-[2-[2-[[2-[2-[2-[[(4S)-4-carboxy-4-(13-carboxytridecanoylamino)butanoyl]amino]ethoxy]ethoxy]acetyl]amino]ethoxy]ethoxy]acetyl]amino]ethylamino]-2-oxoethyl]Cys (protractor of Example 10.3), homodimer, two protractors per dimer) SEPATCGSETPGTSESATPESGPGTSTEPSEGARGDHCPLGPGRCCRLHTVRASLEDLGWADWVLSPREVQVTMCIGACPSQFRAANMHAQIKTSLHRLKPDTVPAPCCVPASYNPMVLIQKTDTGVSLQTYDDLLAKDCHCI")
"T"
>>> qualitative_label("Compound 01 (ligand, Cys-29 (residue 4 of SEQ ID NO: 288): S{Beta}-[2-[2-[[2-[2-[2-[[2-[2-[2-[[(4S)-4-carboxy-4-(17-carboxyheptadecanoylamino)butanoyl]amino]ethoxy]ethoxy]acetyl]amino]ethoxy]ethoxy]acetyl]amino]ethylamino]-2-oxoethyl]Cys (protractor of Example 10.4), homodimer, two protractors per dimer) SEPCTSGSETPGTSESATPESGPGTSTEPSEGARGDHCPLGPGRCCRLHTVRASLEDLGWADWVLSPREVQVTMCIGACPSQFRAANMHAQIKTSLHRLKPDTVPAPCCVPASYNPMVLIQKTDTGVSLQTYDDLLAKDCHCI")
"F"
>>> qualitative_label("SEPCTSGSETPGTSESATPESGPGTSTEPSEG-MIC-1, des-N3, M57L, M86L (Cys mutation A(-29)C) (ligand, homodimer; no protractor) SEPCTSGSETPGTSESATPESGPGTSTEPSEGARGDHCPLGPGRCCRLHTVRASLEDLGWADWVLSPREVQVTMCIGACPSQFRAANLHAQIKTSLHRLKPDTVPAPCCVPASYNPLVLIQKTDTGVSLQTYDDLLAKDCHCI")
"T"
>>> qualitative_label("SEPATSGSETPGTSESATPESGPGTSTEPCEG-MIC-1, des-N3, M57L, M86L (Cys mutation S(-3)C) (ligand, homodimer; no protractor) SEPATSGSETPGTSESATPESGPGTSTEPCEGARGDHCPLGPGRCCRLHTVRASLEDLGWADWVLSPREVQVTMCIGACPSQFRAANLHAQIKTSLHRLKPDTVPAPCCVPASYNPLVLIQKTDTGVSLQTYDDLLAKDCHCI")
"T"
>>> qualitative_label("Compound 10 (ligand, alpha-amino group of the N-terminal Ser-32 (residue 1 of SEQ ID NO: 164): N-[4-[[[2-[2-[2-[[2-[2-[2-[[(4S)-4-carboxy-4-(17-carboxyheptadecanoylamino)butanoyl]amino]ethoxy]ethoxy]acetyl]amino]ethoxy]ethoxy]acetyl]amino]methyl]phenyl]methyl (protractor of Example 10.1), homodimer with one protractor on each of the two N-terminal extensions; also called Formula A (C18)) SEPATSGSETPGTSESATPESGPGTSTEPSEGARGDHCPLGPGRCCRLHTVRASLEDLGWADWVLSPREVQVTMCIGACPSQFRAANLHAQIKTSLHRLKPDTVPAPCCVPASYNPLVLIQKTDTGVSLQTYDDLLAKDCHCI")
"F"
>>> qualitative_label("SEPCTSGSETPGTSESATPESGPGTSTEPSEG-MIC-1, des-N3 (Cys mutation A(-29)C) (ligand, homodimer; no protractor) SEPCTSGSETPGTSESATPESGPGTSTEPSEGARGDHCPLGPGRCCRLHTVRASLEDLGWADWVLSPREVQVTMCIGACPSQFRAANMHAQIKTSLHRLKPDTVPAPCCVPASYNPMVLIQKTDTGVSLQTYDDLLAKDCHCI")
"F"

Q: Given Compound 05 (ligand, Cys-26 (residue 7 of SEQ ID NO: 289): S{Beta}-[2-[2-[[2-[2-[2-[[2-[2-[2-[[(4S)-4-carboxy-4-(17-carboxyheptadecanoylamino)butanoyl]amino]ethoxy]ethoxy]acetyl]amino]ethoxy]ethoxy]acetyl]amino]ethylamino]-2-oxoethyl]Cys (protractor of Example 10.4), homodimer, two protractors per dimer) SEPATSCSETPGTSESATPESGPGTSTEPSEGARGDHCPLGPGRCCRLHTVRASLEDLGWADWVLSPREVQVTMCIGACPSQFRAANLHAQIKTSLHRLKPDTVPAPCCVPASYNPLVLIQKTDTGVSLQTYDDLLAKDCHCI , state whether its Luciferase NNDK EC50 (pM) is at least 80 pM.
Result: F
